tested on: LPS-induced TNFα secretion in monocyte-derived macrophages (MdM); experiment: MdM assay: LPS-triggered TNFα (ELISA); format: cell-based, human; conditions: Homo sapiens, Macrophage, LPS-triggered TNFα inhibition

{"molecule": "COc1cc(-c2cnc3cc(-c4cnn(C)c4)ccn23)cc(OC)c1C(=O)NC(C)C [compound 171]", "target.entity": "LPS-induced TNFα secretion in monocyte-derived macrophages (MdM)", "EC50": "0.1 to 100 nM"}
{"molecule": "COc1cc(-c2cnc3cc(-c4cnn(C)c4)ccn23)cc(Cl)c1C(=O)NCC(F)(F)F [compound 207]", "target.entity": "LPS-induced TNFα secretion in monocyte-derived macrophages (MdM)", "EC50": "100 to 1000 nM"}
{"molecule": "COc1cc(-c2cnc3cc(-c4cnn(C)c4)ccn23)cc(OC)c1C(=O)N1CC(C)(C)C1 [compound 208]", "target.entity": "LPS-induced TNFα secretion in monocyte-derived macrophages (MdM)", "EC50": "100 to 1000 nM"}
{"molecule": "COc1cc(-c2cnc3cc(-c4cnn(C5CN(CCC#N)C5)c4)ccn23)cc(OC)c1C(=O)NCC(F)(F)F [Cpd 264]", "target.entity": "LPS-induced TNFα secretion in monocyte-derived macrophages (MdM)", "EC50": "0.1 to 100 nM"}
{"molecule": "CCn1cc(-c2ccc3c(c2)ncn3-c2cc(OC)c(C(=O)NCC#N)c(OC)c2)cn1 [compound 50]", "target.entity": "LPS-induced TNFα secretion in monocyte-derived macrophages (MdM)", "EC50": "100 to 1000 nM"}
{"molecule": "COc1cc(-c2cnc3cc(-c4cnn(C)c4)ccn23)cc(OC)c1C(=O)NCC(F)F [compound 133]", "target.entity": "LPS-induced TNFα secretion in monocyte-derived macrophages (MdM)", "EC50": "0.1 to 100 nM"}
{"molecule": "COc1cc(-c2cnc3cc(-c4cnn(C(C)C(=O)OC(C)(C)C)c4)ccn23)cc(OC)c1C(=O)NCC(F)(F)F (stereo not drawn) [compound 243]", "target.entity": "LPS-induced TNFα secretion in monocyte-derived macrophages (MdM)", "EC50": "0.1 to 100 nM"}
{"molecule": "COc1cc(-n2cnc3cc(-c4cnn(C)c4)ccc32)cc(OC)c1C(=O)N[C@@H]1C[C@H]1C(F)F [compound 157]", "target.entity": "LPS-induced TNFα secretion in monocyte-derived macrophages (MdM)", "EC50": "100 to 1000 nM"}
{"molecule": "COc1cc(-n2cnc3cc(-c4cnn(C)c4)ccc32)cc(OC)c1C(=O)NC1CCCC[C@H]1N (stereo in doubt) [compound 139]", "target.entity": "LPS-induced TNFα secretion in monocyte-derived macrophages (MdM)", "EC50": "1000 to 5000 nM"}
{"molecule": "CCNC(=O)c1c(OC)cc(-c2cnc3cc(-c4cnn(C(F)F)c4)ccn23)cc1OC(F)F [compound 151]", "target.entity": "LPS-induced TNFα secretion in monocyte-derived macrophages (MdM)", "EC50": "0.1 to 100 nM"}
{"molecule": "COc1cc(-n2cnc3cc(-c4cnn(C)c4)ccc32)cc(OC)c1C(=O)N[C@@H]1C[C@H]1CO [compound 156]", "target.entity": "LPS-induced TNFα secretion in monocyte-derived macrophages (MdM)", "EC50": "1000 to 5000 nM"}
{"molecule": "COc1cc(-c2cnc3cc(-c4cnn(C)c4)ccn23)cc2c1C(=O)N(CC(F)(F)F)C2 [compound 261]", "target.entity": "LPS-induced TNFα secretion in monocyte-derived macrophages (MdM)", "EC50": "0.1 to 100 nM"}
{"molecule": "COc1cc(-n2cnc3cc(-c4cnn(CC#N)c4)ccc32)cc(OC)c1C(=O)NCC(F)(F)F [compound 40]", "target.entity": "LPS-induced TNFα secretion in monocyte-derived macrophages (MdM)", "EC50": "0.1 to 100 nM"}
{"molecule": "COc1cc(-c2cnc3cc(-c4cnn(C)c4)ccn23)cc(OC)c1C(=O)N1CCC(C#N)C1 (stereo not drawn) [compound 210]", "target.entity": "LPS-induced TNFα secretion in monocyte-derived macrophages (MdM)", "EC50": "100 to 1000 nM"}
{"molecule": "CCN(CC)CCOC(=O)C(C)(C)n1cc(-c2ccn3c(-c4cc(OC)c(C(=O)NCC(F)(F)F)c(OC)c4)cnc3c2)cn1 [Cpd 305]", "target.entity": "LPS-induced TNFα secretion in monocyte-derived macrophages (MdM)", "EC50": "100 to 1000 nM"}

Value source: patent US12065443B2
